Below, each of the molecules is paired with its reported pEC50 value.
Tested on: T. brucei brucei (strain BF427)
Assay: In vitro parasite growth arrest assay (AlamarBlue)
Format: cell-based, Trypanosoma brucei brucei
Conditions: Trypanosoma brucei, Figures 4 and 5; read-out: T. brucei EC50
pEC50: −log10 of the molar value.

{"mol": "COc1cc(N2C(=O)CN(Cc3ccc(F)cc3Cl)C2=S)ccc1N(C)C", "pEC50": 8.72}
{"mol": "O=C(Nc1ccc2sc(-c3ccc(F)c(F)c3)nc2c1)N1CC[C@H](F)C1", "pEC50": 7.46}

* * *

Test: Mammalian cell cytotoxicity assay (AlamarBlue, 48 h)
Assay type: cell-based
Conditions: human, lymphocytic cell line CRL-8155; read-out: Mammalian CC50

{"molecule": "O=C(NCCc1nc(-c2ccccc2)cs1)c1ccccc1 [Scaffold 2]", "CC50 at 48 h": "> 50 µM"}
{"molecule": "O=C(Nc1ccc(Cl)c(-c2nc3ncccc3o2)c1)c1ccco1 [Scaffold 1]", "CC50 at 48 h": "> 50 µM"}

* * *

Experiment: Mammalian cell cytotoxicity assay (AlamarBlue, 48 h)
Format: cell-based
Conditions: human

{"compound": "Fc1ccccc1C1C=C(c2cccnc2)Nc2nnnn21 (stereo not shown)", "CC50 at 48 h": "14.3 µM"}

* * *

Test system: T. brucei brucei (strain BF427)
Experiment: In vitro parasite growth arrest assay (AlamarBlue)
Format: cell-based, Trypanosoma brucei brucei
Settings: Trypanosoma brucei, selected hit compounds, Table 1; read-out: T. brucei EC50
Method: Follow up compounds were tested for antiparasitic activity on T. brucei brucei (strain BF427). Parasites were tested in triplicate in the presence of serial dilutions of compound, and growth was quantified with AlamarBlue.
observable: log10 of EC50 (log10 of the value in nM)

{"compound": "O=c1c2ccccc2nc(SCc2cccnc2)n1Cc1ccco1", "log10 of EC50": 2.94}
{"compound": "COc1ccc(-n2nc(C(=O)NCC(=O)N3CCCC(C)C3)c3ccccc3c2=O)cc1Cl (stereo not drawn)", "log10 of EC50": 2.82}
{"compound": "Cc1nn2c(NCCCO)c3c(nc2c1-c1cccs1)CCC3", "log10 of EC50": 2.49}
{"compound": "COc1ccc(CNC(=O)CN(c2cccc(C)c2C)S(=O)(=O)c2ccccc2)cc1", "log10 of EC50": 3.23}
{"compound": "CCn1cc(CN2CCCC(C(=O)Nc3ccc(-c4nc5ccccc5[nH]4)cc3)C2)cn1 (stereo not drawn)", "log10 of EC50": 3.39}
{"compound": "O=c1nc(/C=C/c2cn(Cc3ccccc3F)c3ccccc23)cc(C(F)(F)F)[nH]1", "log10 of EC50": 3.49}

* * *

Experiment: Brain permeability studies in mice (brain to plasma ratio)
Format: in vivo
Conditions: mouse, brain and plasma, intraperitoneal, 5 mg/kg; mice sacrificed at 60 min, n = 3; read-out: brain levels as percent of plasma levels

{"molecule": "O=c1nc(/C=C/c2cn(Cc3ccccc3F)c3ccccc23)cc(C(F)(F)F)[nH]1 [Scaffold 11]", "Kp at 60 min": 0.09}

* * *

Recorded CC50 at 48 h values for a group of molecules are listed next.
Assay: Mammalian cell cytotoxicity assay (AlamarBlue, 48 h)
Assay type: cell-based
Details: human, CRL-8155 cells (lymphoblasts); Figure 3, Scaffold 1 optimization; read-out: CC50

{"mol": "O=C(Nc1ccc(Cl)c(-c2nc3cc(Br)cnc3[nH]2)c1)c1ccco1", "unit-tag": "µM", "value-qualifier": "=", "CC50 at 48 h": 200}
{"mol": "Cc1nc(C)c(C(=O)Nc2ccc(F)c(-c3nc4ncc(-c5ccccc5Cl)cn4n3)c2)o1", "unit-tag": "µM", "value-qualifier": ">", "CC50 at 48 h": 50}
{"mol": "O=C(Nc1ccc(F)c(-c2nc3ncccc3o2)c1)c1ccco1", "unit-tag": "µM", "value-qualifier": "=", "CC50 at 48 h": 99.7}
{"mol": "O=C(Nc1ccc(Cl)c(-c2nc3ncccc3o2)c1)N1CCCC1", "unit-tag": "µM", "value-qualifier": "=", "CC50 at 48 h": 73}
{"mol": "O=C(c1ccco1)N(C(=O)c1ccco1)c1ccc(Cl)c(-c2nc3ncccc3o2)c1", "unit-tag": "µM", "value-qualifier": "=", "CC50 at 48 h": 86}

* * *

Collected Kp at 1 h values appear next to each entry.
Test: Brain permeability studies in mice (brain to plasma ratio)
Type: in vivo, mouse
Conditions: brain and plasma, intraperitoneal, 5 mg/kg; Figure 3; mouse; read-out: Brain:Plasma
observable: Kp at 1 h

{"mol": "Cc1nc(C)c(C(=O)Nc2ccc(F)c(-c3nc4ncc(-c5ccccc5Cl)cn4n3)c2)o1", "result": 0.23}
{"mol": "O=C(Nc1ccc(F)c(-c2nc3cc(-c4ccccc4)cnc3[nH]2)c1)N1CCCC1", "result": 0.04}

* * *

Test: Brain permeability studies in mice (brain to plasma ratio)
Assay type: in vivo, mouse
Settings: mouse, brain and plasma, 5 mg/kg; brain to plasma ratio at 60 min following IP dose; read-out: B/P Ratio (Mouse)
observable: Kp at 60 min

{"compound": "COCCN1C(=O)c2ccccc2C(C(=O)Nc2ccc(Oc3ccccc3)cc2)C1c1ccc(F)cc1 (centres unmarked) [Scaffold 14]", "observable": "Kp at 60 min", "readout-number": 0.01}
{"compound": "O=c1nc(/C=C/c2cn(Cc3ccccc3F)c3ccccc23)cc(C(F)(F)F)[nH]1 [Scaffold 11]", "observable": "Kp at 60 min", "readout-number": 0.09}
{"compound": "COc1ccc(CNC(=O)CN(c2cccc(C)c2C)S(=O)(=O)c2ccccc2)cc1 [Scaffold 12]", "observable": "Kp at 60 min", "readout-number": 0.267}
{"compound": "CCn1cc(CN2CCCC(C(=O)Nc3ccc(-c4nc5ccccc5[nH]4)cc3)C2)cn1 (centres unmarked) [Scaffold 10]", "observable": "Kp at 60 min", "readout-number": 0.224}
{"compound": "COc1ccc(-n2nc(C(=O)NCC(=O)N3CCCC(C)C3)c3ccccc3c2=O)cc1Cl (centres unmarked) [Scaffold 7]", "observable": "Kp at 60 min", "readout-number": 0.587}

* * *

Test system: T. brucei brucei (strain BF427)
Assay: In vitro parasite growth arrest assay (AlamarBlue)
Assay type: cell-based, Trypanosoma brucei brucei
Details: Trypanosoma brucei, Figure 3, Scaffold 1 optimization; read-out: T. brucei EC50
Procedure: Follow up compounds were tested for antiparasitic activity on T. brucei brucei (strain BF427). Parasites were tested in triplicate in the presence of serial dilutions of compound, and growth was quantified with AlamarBlue.
Items are presented alongside their recorded EC50.

{"mol": "O=C(Nc1ccc(Cl)c(-c2nc3ncccc3o2)c1)c1ccco1", "EC50 [nM]": 220}
{"mol": "O=C(Nc1ccc(Cl)c(-c2nc3ncccc3o2)c1)N1CCCC1", "EC50 [nM]": 80}
{"mol": "O=C(Nc1ccc(Cl)c(-c2nc3cc(Br)cnc3[nH]2)c1)c1ccco1", "EC50 [nM]": 50}
{"mol": "O=C(Nc1ccc(F)c(-c2nc3ncccc3o2)c1)c1ccco1", "EC50 [nM]": 80}
{"mol": "O=C(Nc1ccc(F)c(-c2nc3cc(-c4ccccc4)cnc3[nH]2)c1)N1CCCC1", "EC50 [nM]": 4}
{"mol": "O=C(c1ccco1)N(C(=O)c1ccco1)c1ccc(Cl)c(-c2nc3ncccc3o2)c1", "EC50 [nM]": 100}

* * *

The entries below are paired with their reported half-life.
Assay: Mouse liver microsome stability
Settings: mouse, liver microsomes

{"mol": "O=C(Nc1ccc(F)c(-c2nc3ncccc3o2)c1)c1ccco1", "unit-tag": "s", "value-qualifier": "=", "half-life": 42}
{"mol": "Cc1nc(C)c(C(=O)Nc2ccc(F)c(-c3nc4ncc(-c5ccccc5Cl)cn4n3)c2)o1", "unit-tag": "s", "value-qualifier": ">", "half-life": 5400}
{"mol": "O=C(c1ccco1)N(C(=O)c1ccco1)c1ccc(Cl)c(-c2nc3ncccc3o2)c1", "unit-tag": "s", "value-qualifier": "=", "half-life": 42}
{"mol": "O=C(Nc1ccc2sc(-c3ccc(F)c(F)c3)nc2c1)N1CC[C@H](F)C1", "unit-tag": "s", "value-qualifier": ">", "half-life": 3600}
{"mol": "O=C(Nc1ccc(Cl)c(-c2nc3cc(Br)cnc3[nH]2)c1)c1ccco1", "unit-tag": "s", "value-qualifier": "=", "half-life": 48}
{"mol": "O=C(Nc1ccc(Cl)c(-c2nc3ncccc3o2)c1)N1CCCC1", "unit-tag": "s", "value-qualifier": "=", "half-life": 48}

* * *

Assay: Brain permeability studies in mice (brain to plasma ratio)
Assay type: in vivo, mouse
Settings: mouse, brain and plasma, 5 mg/kg; brain to plasma ratio at 60 min following IP dose; read-out: B/P Ratio (Mouse)

{"compound": "COc1cccc(C2N(c3ccccc3)N=C(C(C)=O)N2c2ccc(C)c(C)c2)c1OCc1ccccc1 (centres unmarked)", "Kp at 60 min": 0}
{"compound": "Cc1cc(C)c(NC(=O)c2cc(S(=O)(=O)N3CCOCC3)cn2C)c(C)c1", "Kp at 60 min": 0.02}
{"compound": "Cc1nn2c(NCCCO)c3c(nc2c1-c1cccs1)CCC3", "Kp at 60 min": 0.727}
{"compound": "O=c1c2ccccc2nc(SCc2cccnc2)n1Cc1ccco1", "Kp at 60 min": 2.86}
{"compound": "COc1ccc(-c2c(C#N)c(SCc3ccccc3)nc(C)c2C(=O)Nc2ccccc2)cc1", "Kp at 60 min": 0}

Data provenance is paper PMC7157241.
